test system: OVCAR-3; assay: NCI tumour cell line growth inhibition, 48 h
Active and inactive are the calls of the source. Cut-off read from the data, not from the text of the source: active = GI50 up to about 1.1 µM and inactive = higher.
The compounds listed here are annotated with their GI50.

Consider the reported GI50 for these compounds:
Oc1cccc(-c2cccc(O)n2)n1; > 100 µM (inactive)
COc1c2c(cc3c(CCc4ccccc4)cc(=O)oc13)CCC(C)(C)O2; > 100 µM (inactive)
CC(C)C(C=O)C(O)(C(F)(F)F)C(F)(F)F (stereo not drawn); > 100 µM (inactive)
Cc1nc2ccccc2c(=O)n1NC(=O)c1ccc(CS)cc1; 11.8 µM (inactive)
C/C(=N\OCC(O)CNCCSCc1ccccc1)c1ccccc1Cl (stereo not drawn); 17.9 µM (inactive)

Prompt: Could you tell me which GI50 is on file for `CC(C)c1cc2c(O)c(c1)Cc1cc(C(C)C)cc(c1O)Cc1cc(C(C)C)cc(c1O)Cc1cc(C(C)C)cc(c1O)C2` ?
Response: > 100 µM (inactive)

Prompt: Let us now turn to `O=C1C=C/C(=C/[C@H]2SSC=C[C@]23C=CC(=O)C3)C1`
Response: 26.7 µM (inactive)

Prompt: Let us now turn to `O=C(c1ccc(Br)cc1)n1c2ccc(Br)cc2c2nc3ccccc3nc21`
Response: > 100 µM (inactive)

----------
tested on: SF-295; test: NCI tumour cell line growth inhibition, 48 h
Active and inactive are the calls of the source. Rule as the data show it: active = GI50 up to about 1.1 µM and inactive = higher.
The molecules listed here are annotated with their GI50.

Consider the reported GI50 for these molecules:
Nc1cc(OCc2ccccc2)c(OCc2ccccc2)cc1C=O; 31.4 µM (inactive)
CCOc1ccc(/N=N/c2ccc3cc(/C(C)=N/NC(=O)/C(C#N)=C\c4ccc(N(CCC#N)CCC#N)cc4)c(=O)oc3c2)cc1; > 10 µM (inactive)
C=C(COC(C)=O)CC(/C=C(\C)CCC=C(C)C)OC(C)=O (stereo not given); > 100 µM (inactive)

Prompt: Could you tell me which GI50 is on file for `O/N=C1\CCc2cc3c(cc21)CCC3` ?
Response: > 100 µM (inactive)

Prompt: Let us now turn to `CCCCN(CC)C(=O)C1=C(C)NC(C)=C(C(=O)N(CC)CCCC)C1`
Response: > 100 µM (inactive)

----------
test system: DLD-1; test: NCI tumour cell line growth inhibition, 48 h
Activity calls are given as the source filed them. No stated cut-off is given here; in the data, active = GI50 up to about 1.1 µM and inactive = higher.
The compounds listed here are annotated with their GI50.

Consider the reported GI50 for these compounds:
O=S1(=O)CC#CC[C@@H](CO)[C@@H](CO)CC#CC1; > 100 µM (inactive)
CCOc1ncnc2ccc(Cl)c(I)c12; 99.1 µM (inactive)
COC(=O)n1c(CBr)c(Br)c2ccccc21; 41.5 µM (inactive)
Cc1ccc(NC(=O)/C(=N/NC(=O)CC#N)C2C(=O)N(c3ccccc3)N=C2N)cc1C (stereo unspecified); > 100 µM (inactive)
COc1ccc(/C(Cl)=C(\C=O)c2ccc(F)cc2)cc1; 8.17 µM (inactive)

Prompt: What reported GI50 corresponds to CN(c1ccccc1)C(c1ccccc1)C(O)c1ccccc1 (stereo unspecified) on DLD-1?
Response: 23.9 µM (inactive)

Prompt: Let us now turn to `Oc1cccc(-c2cccc(O)n2)n1`
Response: > 100 µM (inactive)

Prompt: Let us now turn to `Cc1cc(C(=C2C=CC(=N)C=C2)c2ccc(N)cc2)ccc1N`
Response: 3.45 µM (inactive)

Prompt: Let us now turn to `Cn1nc(-c2cccc(-c3nn(C)/c(=N\CCO)s3)n2)s/c1=N/CCO`
Response: > 100 µM (inactive)

Prompt: Let us now turn to `Cc1nc2sccn2c1C(=O)NNC(N)=S`
Response: > 100 µM (inactive)

Prompt: Let us now turn to CCCCCCC(C)OC(=O)/C=C(\CC(=O)OC(C)CCCCCC)C(=O)OC(C)CCCCCC (stereo unspecified)
Response: > 100 µM (inactive)
